Target: T1, human formyl peptide receptor FPR1 (human, UniProt P21462 1-350)
T1 sequence (looked up): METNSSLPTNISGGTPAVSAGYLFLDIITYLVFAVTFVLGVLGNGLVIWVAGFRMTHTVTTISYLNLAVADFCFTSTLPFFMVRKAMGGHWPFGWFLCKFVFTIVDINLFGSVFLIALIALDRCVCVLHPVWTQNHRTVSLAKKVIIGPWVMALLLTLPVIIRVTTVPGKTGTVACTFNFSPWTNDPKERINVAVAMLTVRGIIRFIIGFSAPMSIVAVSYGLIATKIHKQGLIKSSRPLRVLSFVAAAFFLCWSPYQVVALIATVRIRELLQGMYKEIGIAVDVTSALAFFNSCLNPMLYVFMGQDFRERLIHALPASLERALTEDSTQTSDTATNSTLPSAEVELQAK
Assay: cell-based or functional assay
Ends that are not written are not given here. * marks the point of attachment. For = O=C*
endpoint.label: EC50(nM), transient Ca2+ flux in HEK293/Gα16 cells expressing FPR1

P = CPAAVLWRWVPM [peptide AF-1]
Q = SMCPTASAWVWLM [peptide AF-2]
R = RFPKNCHLRPPRMILFTALV [peptide AF-3]
S = For-SLLWLTCRPWEAM [f-A5, N-terminally formylated derivative of peptide A5]
In: Give the order of the entries above, sorted from least to greatest EC50(nM), transient Ca2+ flux in HEK293/Gα16 cells expressing FPR1. Field: ranking. Enter the labels in the order requested.
Out: S, R, Q, P
